All values here come from paper PMC3408863.

measurement_target: Bovine Trypsin (Bos taurus, UniProt P00760)
Sequence (P00760 24-246): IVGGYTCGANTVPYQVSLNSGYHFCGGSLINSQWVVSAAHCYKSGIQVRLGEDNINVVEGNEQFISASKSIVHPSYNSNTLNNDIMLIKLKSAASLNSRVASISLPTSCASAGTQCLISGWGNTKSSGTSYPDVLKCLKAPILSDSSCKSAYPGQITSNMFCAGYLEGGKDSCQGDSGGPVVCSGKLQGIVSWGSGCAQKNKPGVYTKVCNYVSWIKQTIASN
pIC50: −log10 of the molar value.
measured_endpoint: pIC50

Query string: Name the recorded pIC50 for O=C(Nc1ccc(N2CCOCC2=O)cc1)[C@H]1Cc2ccccc2CN1C(=O)Cc1ccc(Cl)cc1 .
Result string: < 4.00

###

measurement_target: human FXa (Homo sapiens)
Sequence (P00742 235-488 limits assumed): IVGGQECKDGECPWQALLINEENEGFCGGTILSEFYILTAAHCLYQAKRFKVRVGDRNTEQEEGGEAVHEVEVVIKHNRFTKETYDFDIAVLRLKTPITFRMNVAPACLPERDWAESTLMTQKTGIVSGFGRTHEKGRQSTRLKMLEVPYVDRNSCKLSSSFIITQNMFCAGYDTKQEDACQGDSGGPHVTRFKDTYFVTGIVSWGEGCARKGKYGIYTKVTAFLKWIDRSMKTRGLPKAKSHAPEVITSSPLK
Sequence (P00742 41-179 limits assumed): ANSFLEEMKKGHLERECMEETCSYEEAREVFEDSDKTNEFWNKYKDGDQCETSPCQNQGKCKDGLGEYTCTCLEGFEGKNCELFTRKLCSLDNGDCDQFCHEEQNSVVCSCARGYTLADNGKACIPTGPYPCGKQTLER
measured_endpoint: pKi
For clarity, pKi is expressed as the negative log10 of concentration in mol/L.

Query string: State its pKi on human FXa (Homo sapiens): O=C(Nc1ccc(N2CCOCC2=O)cc1)[C@H]1Cc2ccccc2CN1C(=O)Cc1ccc(Cl)cc1
Result string: 6.87
